target-system: pertussis AB5 holotoxin (PtxS1-S5) (Bordetella pertussis, UniProt P04977)
Sequence (P04977 whole entry, looked up): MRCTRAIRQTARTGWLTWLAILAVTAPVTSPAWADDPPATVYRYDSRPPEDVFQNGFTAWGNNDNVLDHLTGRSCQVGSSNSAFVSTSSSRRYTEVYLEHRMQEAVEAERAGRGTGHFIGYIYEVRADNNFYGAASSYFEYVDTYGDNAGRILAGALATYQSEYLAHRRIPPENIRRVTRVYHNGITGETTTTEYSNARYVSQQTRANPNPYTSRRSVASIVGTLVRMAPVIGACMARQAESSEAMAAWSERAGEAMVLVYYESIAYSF
procedure-details: cell-based
measured-endpoint: IC50 (nM)
State the answer as a number, implicitly in nM.

pertussis AB5 holotoxin (PtxS1-S5) (Bordetella pertussis, UniProt P04977) / IC50 / O=[N+]([O-])c1ccc(Sc2cccc[n+]2[O-])c2nonc12 : value?
2350

====

Quick reference for pIC50 among some molecules
target-system: rPtxS1 (recombinant pertussis toxin S1 subunit, wild type) (Bordetella pertussis, UniProt P04977)
Sequence (P04977 35-221 limits assumed): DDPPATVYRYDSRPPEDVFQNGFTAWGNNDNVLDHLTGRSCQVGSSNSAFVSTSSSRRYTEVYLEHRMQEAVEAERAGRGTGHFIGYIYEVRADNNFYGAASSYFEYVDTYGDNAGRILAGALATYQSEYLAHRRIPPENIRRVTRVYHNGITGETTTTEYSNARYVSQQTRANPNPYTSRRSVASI
procedure-details: fluorometric NAD+ consumption assay
Lab note: report pIC50 as minus log10 of the concentration in molar units, number only.

Examples with their reported pIC50 follow.
>>> print(df.to_string())
                                   molecule  measured_endpoint  recorded_result
0  O=[N+]([O-])c1ccc(Sc2cccc[n+]2[O-])c2nonc12 [NSC228155]              pIC50             5.52
1  Sc1nc2c[nH]c(S)nc-2n1 [NSC29193, purine-2,8-dithiol]              pIC50             5.17

Please find the next molecule below.
// query pIC50 value for entry O=C(/C=C/c1cccnc1)/C=C/c1cccnc1 [NSC149286]
4.70
